The reported measurements were obtained from patent US8445440B2.

# tested_on: XIAP-BIR3 (Homo sapiens)
# Sequence (P98170 241-356 limits assumed): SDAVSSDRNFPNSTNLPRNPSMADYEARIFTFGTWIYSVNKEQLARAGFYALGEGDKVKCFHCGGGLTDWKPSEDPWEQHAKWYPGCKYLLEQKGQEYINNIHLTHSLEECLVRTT
# test_summary: Biacore SPR solution competition binding assay vs smac7 mer peptide, XIAP-BIR3
# assay_setup: citrate salt form tested; 100 nM XIAP-BIR3; 25° C.; read-out: XIAP-BIR3 Binding Biacore (Competitive) EC50
quantity_measured: EC50

Quick check: EC50 of CN[C@@H](C)C(=O)N[C@@H](Cc1ccc(NC(=O)CCCC(=O)Nc2ccc(C[C@H](NC(=O)[C@H](C)NC)C(=O)N3CCC[C@H]3c3cncc(C(=O)c4ccc(F)cc4)c3)cc2)cc1)C(=O)N1CCC[C@H]1c1cncc(C(=O)c2ccc(F)cc2)c1 ?
0.123 to 0.126 µM

Proceed to CN[C@@H](C)C(=O)N[C@@H](Cc1ccc(NC(=O)c2cccc(C(=O)Nc3ccc(C[C@H](NC(=O)[C@H](C)NC)C(=O)N4CCC[C@H]4c4cncc(C(=O)c5ccc(F)cc5)c4)cc3)c2)cc1)C(=O)N1CCCC1c1cncc(C(=O)c2ccc(F)cc2)c1 (stereo partly drawn)
0.228 to 0.238 µM

Also CN[C@@H](C)C(=O)N[C@@H](CCCCNC(=O)c1ccc(C(=O)NCCCC[C@H](NC(=O)[C@H](C)NC)C(=O)N2CCC[C@H]2c2cncc(C(=O)c3ccc(F)cc3)c2)cc1)C(=O)N1CCC[C@H]1c1cncc(C(=O)c2ccc(F)cc2)c1 ?
0.413 to 0.425 µM

====

# EC50 per record follows
# tested_on: XIAP-BIR3 (Homo sapiens)
# test_summary: Biacore SPR solution competition binding assay vs smac7 mer peptide, XIAP-BIR3
# assay_setup: citrate salt form tested; 100 nM XIAP-BIR3; 25° C.; read-out: XIAP-BIR3 Binding Biacore (Competitive) EC50

• CN[C@@H](C)C(=O)N[C@@H](CCCCNC(=O)c1cccc(C(=O)NCCCC[C@H](NC(=O)[C@H](C)NC)C(=O)N2CCC[C@H]2c2cncc(C(=O)c3ccc(F)cc3)c2)c1)C(=O)N1CCC[C@H]1c1cncc(C(=O)c2ccc(F)cc2)c1 [Example 1E] = 139 to 158 nM

For XIAP-BIR3 (Homo sapiens), provide EC50 of CN[C@@H](C)C(=O)N[C@@H](CCCCNS(=O)(=O)c1ccc(-c2ccc(S(=O)(=O)NCCCC[C@H](NC(=O)[C@H](C)NC)C(=O)N3CCC[C@H]3c3cncc(C(=O)c4ccc(F)cc4)c3)cc2)cc1)C(=O)N1CCC[C@H]1c1cncc(C(=O)c2ccc(F)cc2)c1 [Example 1D] please.
88.5 to 129 nM

Would you mind doing CN[C@@H](C)C(=O)N[C@@H](Cc1ccc(NC(=O)CCCCCCCC(=O)Nc2ccc(C[C@H](NC(=O)[C@H](C)NC)C(=O)N3CCC[C@H]3c3cncc(C(=O)c4ccc(F)cc4)c3)cc2)cc1)C(=O)N1CCC[C@H]1c1cncc(C(=O)c2ccc(F)cc2)c1 [Example 2E] as well?
99.4 to 104 nM

Another compound: CN[C@@H](C)C(=O)N[C@@H](CCCCNC(=O)CCCCCCCCC(=O)NCCCC[C@H](NC(=O)[C@H](C)NC)C(=O)N1CCC[C@H]1c1cncc(C(=O)c2ccc(F)cc2)c1)C(=O)N1CCC[C@H]1c1cncc(C(=O)c2ccc(F)cc2)c1 [Example 1G]
97.2 to 108 nM
